Give pIC50 for every item shown.
System tested: HLA-A*02:06
Measurement protocol: IEDB peptide-MHC binding, purified MHC/competitive/radioactivity; bounds were set here for any values at or beyond the usual limits of such assays
Experimental conditions: source organism: Vaccinia virus WR
Give bare numbers, as −log10 of the molar value.

FTEEQQQSFM 6.08
FTKDGKLDDT 6.05
ITRLEVIGLT 6.01

Please look at the items below and tell me pIC50 for each one, in order.
1. DLKHATDYIA
2. ALEQYGIENT
3. ILFILFFAYV
4. VLALYSPPL
5. SIPISELSRL
6. NVTYNIKPV

Solution:
[5.98, 5.90, 5.92, 7.48, 7.11, 6.07]

# map each sequence to its pIC50
1. ITYCLVTHM
2. IVFGIYKDNL

Solution:
[5.85, 7.32]

----------
System tested: HLA-A*02:01
Measurement protocol: IEDB peptide-MHC binding, purified MHC/competitive/radioactivity; bounds were set here for any values at or beyond the usual limits of such assays
Experimental conditions: source organism: Vaccinia virus WR
pIC50: −log10 of the molar value.
Assign class by pIC50: not lower than 8 means true; lower than 8 means false.

NASKFVYVSV false
AVTLNRIKIA false
LAISAVYFKA false
SMLIEVILTA false
SINITPDDGL false
MISRHCCIL false
TIDNIVTSL false
HLMFYTLPI true
KLYGYASLT false
HLIKIPLLI true

Exercise: Is reported pIC50 greater than or equal to 8 here: GIKSVVVPI
Solution: false

Exercise: Try the sequence TLDNILGIL
Solution: false

Exercise: Another: FIMRNFLRSI
Solution: true

Exercise: Now this one: ITTLLNETA
Solution: false

Exercise: What would you report for VMPEKRNVVV ?
Solution: false

Exercise: QTLISLNSM , same question.
Solution: false

Exercise: Entry to check: DLLSYYVVYV
Solution: true

Exercise: Next entry: YLLFNHFSV
Solution: true

Exercise: Moving on to the next sequence: IAGIILLIL
Solution: false

----------
System tested: HLA-A*02:02
Measurement protocol: IEDB peptide-MHC binding, purified MHC/competitive/radioactivity; bounds were set here for any values at or beyond the usual limits of such assays
Experimental conditions: source organism: Vaccinia virus WR
Field: pIC50. Provide a value for each of the sequences that follow.
Give bare numbers, as −log10 of the molar value.

// solved cases for pIC50 follow
FIASAPQQL 8.70
TTIGTIAGGV 6.13
CIVQSVLRDI 6.66
LISILMIFI 5.63
GMSIVCIVAA 6.79
NTDHPLSINV 6.41
RLRYNLCKYL 6.58
FVDTMSIYIA 6.81

Quick batch: pIC50 for everything below.
1. LISLINSLV
2. PTSETMYLTM

Solution:
1: 9.32; 2: 6.06

Look up pIC50 for the entries below, preserving their order.
1. FIISTLNKI
2. PTWLGAAITL
3. GTSVIRSNI

Solution:
1: 8.80; 2: 5.87; 3: 6.41

----------
System tested: HLA-A*02:01
Measurement protocol: IEDB peptide-MHC binding, cellular MHC/competitive/fluorescence; bounds were set here for any values at or beyond the usual limits of such assays
Experimental conditions: source organism: Vaccinia virus WR
Assay endpoint: IC50

In the examples that follow, each entry is paired with its recorded IC50.
ATVMNNLSEL 11 µM
KIEPRNILI 8.32 µM
NASKTINALV 8.46 µM
FLRPVLKAM 11.9 µM
DVTAKSSFV 8.56 µM
AVKFAEESYT 7.83 µM
PVLPICVRT 7.3 µM
LTSGEYKQCL 20.2 µM

# map each sequence to its IC50
1. EVSYFTNKRT
2. DVCKKNLDL
3. GVIFLISVI

Solution:
1. 66.1 µM
2. 19.5 µM
3. 12.1 µM

// each listed sequence needs a value for IC50
1. RTKIPLSKV
2. NLYISDYKM
3. MIKVGNCDET
4. NVTYNIKPV
5. AAITDAAVAV
6. LTSVDIETAI
7. LQTIEIIFT
8. ALNISSTKT

Solution:
1: ≥ 70 µM; 2: 6.17 µM; 3: ≥ 70 µM; 4: 6.36 µM; 5: 5.31 µM; 6: 6.73 µM; 7: 9.68 µM; 8: 21.1 µM

Provide reported IC50 for each item, in the same order as listed.
1. ETIGNQLYLT
2. IIRVTTELNI
3. VALTIMGVI
4. VTKTDGIPI
5. KLSKLTDKKT
6. ITFALKKLI

Solution:
14.6 µM
7.07 µM
8.94 µM
8.57 µM
≥ 70 µM
≥ 70 µM
